Could you please report measured DSF for the items listed next?
# testTarget: cGAMP binding domain of wild-type (GRR) human STING, residues 155-341 (Homo sapiens, UniProt Q86WV6, H232R)
# Construct: His-TEV-hSTING (WT); TEV protease cleavage site (N); made in house; host or cells: E. coli BL21 DE3
# Sequence (Q86WV6 with tags, fused parts or gaps H232R): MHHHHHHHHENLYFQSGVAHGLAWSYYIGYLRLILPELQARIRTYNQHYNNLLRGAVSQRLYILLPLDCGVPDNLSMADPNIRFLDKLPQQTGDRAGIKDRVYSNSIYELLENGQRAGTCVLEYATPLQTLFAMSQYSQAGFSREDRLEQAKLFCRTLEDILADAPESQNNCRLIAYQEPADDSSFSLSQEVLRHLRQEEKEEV
# assayMethodText: Increase of stability of STING protein against thermal denaturation, Differential Scanning Fluorimetry (DSF)
# Protocol: Dye fluorescence is quenched in aqueous environment and increases upon association of the dye with the hydrophobic parts of the unfolding protein. […] The inflection point of the curve represents the “melting” temperature of the protein (Tm) which is calculated numerically using the Boltzmann equation. […] Two replicates of TM measurements were averaged, and the standard deviation was calculated. […]
Answer with the figure and its unit, nothing else.

Task item: Identify measured DSF associated with Cc1c(-n2nc(-c3cccc4nn(C[C@H](O)c5ccccc5)cc34)c(C(C)C)c2C)ccn2c(C)nnc12
Reply: 28 K

Task item: Identify measured DSF associated with Cn1cc2cc(-c3nc(-c4cccc5nn(C[C@H](O)c6ccc(O)cc6)cc45)c(C4CC4)n3C)c(C3CC3)nc2n1
Reply: 29 K

Task item: Identify measured DSF associated with Cc1nc2nn(CC(O)CO)cc2cc1-n1nc(-c2cccc3nn(C[C@H](O)c4ccccc4)cc23)c(C(C)C)c1C (stereo partly drawn)
Reply: 26 K

Task item: Identify measured DSF associated with Cc1nc2nn(Cc3cnn(C)c3)cc2cc1-n1nc(-c2cccc3nn(C[C@H](O)c4ccccc4)cc23)c(C(C)C)c1C
Reply: 30 K

Task item: Identify measured DSF associated with Cc1c(C(C)C)c(-c2cccc3nn(C[C@H](O)c4ccccc4)cc23)nn1-c1cc2cn(C)nc2nc1C1CCOC1 (stereo partly drawn)
Reply: 30 K

Task item: Identify measured DSF associated with Cc1nc2nn(CC#N)cc2cc1-n1nc(-c2cccc3nn(C[C@H](O)c4ccccc4)cc23)c(C(C)C)c1C
Reply: 29 K

Task item: Identify measured DSF associated with Cc1c(C(C)C)c(-c2cccc3nn(C[C@H](O)c4ccccc4)cc23)nn1-c1cc2cn(C)nc2nc1C1CCCN1 (stereo partly drawn)
Reply: 24 K

Task item: Identify measured DSF associated with Cc1nc2nn(CC(O)CN3CCN(C)CC3)cc2cc1-n1nc(-c2cccc3nn(C[C@H](O)c4ccccc4)cc23)c(C(C)C)c1C (stereo partly drawn)
Reply: 24 K

Task item: Identify measured DSF associated with Cn1cc([C@@H](O)Cn2cc3c(-c4nc(-c5cc6cn(C)nc6nc5C5CC5)n(C)c4C4CC4)cccc3n2)cn1
Reply: 29 K

Task item: Identify measured DSF associated with CCCO[C@@H](Cn1cc2c(-c3nn(-c4cc5cn(C)nc5nc4C)c(C)c3C(C)C)cccc2n1)c1ccccc1
Reply: 22 K

Task item: Identify measured DSF associated with C=CCO[C@@H](Cn1cc2c(-c3nn(-c4cc5cn(C)nc5nc4C)c(C)c3C(C)C)cccc2n1)c1ccccc1
Reply: 23 K

Task item: Identify measured DSF associated with Cc1nc2nn(C)cc2cc1-n1nc(-c2cccc3nn(C[C@H](OCCF)c4ccccc4)cc23)c(C(C)C)c1C
Reply: 24 K

Task item: Identify measured DSF associated with COc1nc2nn(C)cc2cc1-n1nc(-c2cccc3nn(C[C@H](O)c4ccccc4)cc23)c(C(C)C)c1C
Reply: 27 K

Task item: Identify measured DSF associated with Cc1c(C(C)C)c(-c2cccc3nn(C[C@H](O)c4ccccc4)cc23)nn1-c1cc2cn(C)nc2nc1CC1CC1
Reply: 28 K

Task item: Identify measured DSF associated with Cc1c(C(C)C)c(-c2cccc3nn(C[C@H](O)c4ccccc4)cc23)nn1-c1cc2cn(C)nc2nc1C(C)O (stereo partly drawn)
Reply: 29 K

Task item: Identify measured DSF associated with Cc1nc2nn(C)cc2cc1-n1nc(-c2cccc3nn(C[C@H](OCCC(C)(C)O)c4ccccc4)cc23)c(C(C)C)c1C
Reply: 25 K

Task item: Identify measured DSF associated with Cc1nc2nn(CCC#N)cc2cc1-n1nc(-c2cccc3nn(C[C@H](O)c4ccccc4)cc23)c(C(C)C)c1C
Reply: 29 K

Task item: Identify measured DSF associated with Cc1c(C2CC2)c(-c2cccc3nn(C[C@H](O)c4ccccc4)cc23)nn1-c1cc2cn(C)nc2nc1C1CC1
Reply: 29 K

Task item: Identify measured DSF associated with Cc1nc2cc(C)c(-n3nc(-c4cccc5nn(C[C@H](O)c6ccccc6)cc45)c(C(C)C)c3C)cc2[nH]1
Reply: 24 K

Task item: Identify measured DSF associated with Cc1nc2nn(CCN3CCOCC3)cc2cc1-n1nc(-c2cccc3nn(C[C@H](O)c4ccccc4)cc23)c(C(C)C)c1C
Reply: 26 K

Task item: Identify measured DSF associated with Cc1nc2nn(C)cc2cc1-n1nc(-c2cccc3nn(CCc4ccc(OCCN(C)C)cc4)cc23)c(C(C)C)c1C
Reply: 26 K

Task item: Identify measured DSF associated with Cn1cc2cc(-c3nc(-c4cccc5nn(C[C@H](O)c6ccc(OCC7CCOCC7)cc6)cc45)c(C4CC4)n3C)c(C3CC3)nc2n1
Reply: 28 K

Task item: Identify measured DSF associated with Cc1nc2nn(C)cc2cc1-n1nc(-c2cccc3nn(CC(O)c4ccc(Br)cc4)cc23)c(C(C)C)c1C (stereo not drawn)
Reply: 25 K

Task item: Identify measured DSF associated with Cc1nc2nn(CC(F)F)cc2cc1-n1nc(-c2cccc3nn(C[C@H](O)c4ccccc4)cc23)c(C(C)C)c1C
Reply: 29 K

Task item: Identify measured DSF associated with Cc1nc2nn(CCO)cc2cc1-n1nc(-c2cccc3nn(C[C@H](O)c4ccccc4)cc23)c(C(C)C)c1C
Reply: 27 K

Task item: Identify measured DSF associated with Cc1c(C(C)C)c(-c2cccc3nn(C[C@H](O)c4ccc(OCCN(C)C)cc4)cc23)nn1-c1cc2cn(C)nc2nc1C1CC1
Reply: 30 K

Task item: Identify measured DSF associated with Cc1c(C(C)C)c(-c2cccc3nn(C[C@H](O)c4ccccc4)cc23)nn1-c1cc2cn(C)nc2nc1OC(C)C
Reply: 25 K

* * *

# testTarget: human STING WT (R232) (Homo sapiens, UniProt Q86WV6, H232R)
# Sequence (Q86WV6 138-379 H232R): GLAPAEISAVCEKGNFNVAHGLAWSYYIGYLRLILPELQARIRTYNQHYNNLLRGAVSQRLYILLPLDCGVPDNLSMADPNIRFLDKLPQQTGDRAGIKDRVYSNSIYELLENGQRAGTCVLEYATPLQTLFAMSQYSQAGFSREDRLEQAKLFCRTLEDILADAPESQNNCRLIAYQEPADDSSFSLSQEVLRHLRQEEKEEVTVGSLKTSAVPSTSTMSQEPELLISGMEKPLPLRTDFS
# assayMethodText: Human STING HTRF binding assay (competitive, Cisbio 64BDSTGPEG)
Could you please report measured pIC50 for the items listed next?
For clarity, pIC50 is expressed as the negative log10 of concentration in mol/L.

Task item: Identify measured pIC50 associated with CNc1nc2nn(C)cc2cc1-n1nc(-c2cccc3nn(C[C@H](O)c4ccccc4)cc23)c(C(C)C)c1C
Reply: 7.68

Task item: Identify measured pIC50 associated with CO[C@@H](Cn1cc2c(-c3nn(-c4cc5cn(C)nc5nc4C)c(C)c3C(C)C)cccc2n1)c1ccccc1
Reply: 7.70

Task item: Identify measured pIC50 associated with Cc1nc2nn(CC#N)cc2cc1-n1nc(-c2cccc3nn(C[C@H](O)c4ccccc4)cc23)c(C(C)C)c1C
Reply: 8.51

Task item: Identify measured pIC50 associated with Cc1nc2nn(CCCO)cc2cc1-n1nc(-c2cccc3nn(C[C@H](O)c4ccccc4)cc23)c(C(C)C)c1C
Reply: 8.07

Task item: Identify measured pIC50 associated with COCCn1cc2cc(-n3nc(-c4cccc5nn(C[C@H](O)c6ccccc6)cc45)c(C(C)C)c3C)c(C)nc2n1
Reply: 8.18

Task item: Identify measured pIC50 associated with CCCO[C@@H](Cn1cc2c(-c3nn(-c4cc5cn(C)nc5nc4C)c(C)c3C(C)C)cccc2n1)c1ccccc1
Reply: 7.51

Task item: Identify measured pIC50 associated with CC(C)c1c(-c2cccc3nn(C[C@H](O)c4ccccc4)cc23)nc(-c2cc3cn(C)nc3cc2OC(F)(F)F)n1C
Reply: 7.73

Task item: Identify measured pIC50 associated with CCc1nc2nn(C)cc2cc1-c1nc(-c2cccc3nn(C[C@H](F)c4ccccc4)cc23)c(C2CC2)n1C
Reply: 8.42

Task item: Identify measured pIC50 associated with COCc1nc2nn(C)cc2cc1-n1nc(-c2cccc3nn(C[C@H](O)c4ccccc4)cc23)c(C(C)C)c1C
Reply: 8.85

Task item: Identify measured pIC50 associated with Cc1c(C(C)C)c(-c2cccc3nn(C[C@H](O)c4ccccc4)cc23)nn1-c1cc2cn(C)nc2nc1C1CCCO1 (some centres unmarked)
Reply: 7.76

Task item: Identify measured pIC50 associated with Cc1c(C(C)C)c(-c2cccc3nn(C[C@H](O)c4ccccc4)cc23)nn1-c1cc2cn(C)nc2nc1CN(C)C
Reply: 7.50

Task item: Identify measured pIC50 associated with CCCc1nc2nn(C)cc2cc1-n1nc(-c2cccc3nn(C[C@H](O)c4ccccc4)cc23)c(C(C)C)c1C
Reply: 7.62

Task item: Identify measured pIC50 associated with Cc1nc2nn(C)cc2cc1-n1nc(-c2cccc3nn(C[C@H](O)c4ccc(F)cc4)cc23)c(C(C)C)c1C
Reply: 7.82

Task item: Identify measured pIC50 associated with Cc1nc2nn(CCN3CCOCC3)cc2cc1-n1nc(-c2cccc3nn(C[C@H](O)c4ccccc4)cc23)c(C(C)C)c1C
Reply: 7.92
